Documented %Inh across a set of compounds
# System: CDK3
# SETUP_CONDITIONS: concentration: 1 μM, replicates: in singlicate; n = 1;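 also: KINOMEscan kinase panel screen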
Answer format: numeric, % implied, no suffix.

Field: example entries. Status: answers known.
> print(dat)
                                   compound  result.type  reported.value
1  COC(=O)Nc1nc2cc(Oc3ccc(NC(=O)Nc4cc(C(F)(F)F)ccc4F)cn3)ccc2[nH]1.Cl.Cl [GW681170]         %Inh               7
2  Cn1cc(-c2ccc3c(c2)CCN3C(=O)Cc2cccc(F)c2)c2c(N)ncnc21 [GSK2603358]         %Inh               7

Now for a further compound.
Incoming: May I ask what %Inh has been recorded for Cc1ccc(F)c(C(=O)Nc2cccc(-c3nn4ccccc4c3-c3ccnc(Nc4cccc(F)c4)n3)c2)c1F [GSK361061] ?
Outgoing: 17

---

# System: BLK
# SETUP_CONDITIONS: concentration: 1 μM, replicates: in singlicate; n = 1
Just so you know, the groups by %Inh go like this: Low (below 20%), Mid (20% to below 90%), High (90% or more)

> print(dat)
                                   compound  group
1  CC(=O)Nc1nc2cnc(Nc3cc(NC(=O)c4cccc(C5(C#N)CC5)c4Cl)ccc3C)nc2s1    Mid
2  CC(C)c1nc(-c2cccc(NS(=O)(=O)c3c(F)cccc3F)c2F)c(-c2ccnc(Nc3ccc(N4CCOCC4)nc3)n2)s1   High
3            Oc1cc(Nc2ccnc3cc(I)ccc23)ccc1F    Mid
4  COC(=O)Nc1nc2cc(Oc3ccc(NC(=O)Nc4cc(C(F)(F)F)ccc4F)cn3)ccc2[nH]1.Cl.Cl    Mid
5              Nc1n[nH]c2cnc(-c3ccccc3)cc12    Low
6  CCCCc1nn2ncccc2c1-c1ccnc(Nc2ccc(N3CCN(C)CC3)cc2)n1    Mid

Incoming: Which category fits this record: COc1cccc(NC(=O)NC2CCN(c3ccnc(Nc4cc(OC)c(OC)c(OC)c4)n3)C2)c1 (centres unmarked)
Outgoing: Low

Incoming: Each compound maps to one class by %Inh. Which class for "COCCOCCOc1cc2ncc3c4ccc(C#N)cc4[nH]c3c2cc1OC" ?
Outgoing: Mid

Incoming: // bin(item) where item = "O=C(Nc1cccc(Oc2ccc3nc(NC(=O)C4CC4)cn3n2)c1)c1ccccc1C(F)(F)F"
Outgoing: Mid

Incoming: Hello team, could you let me know which band the following compound falls into: "Cn1cc(-c2[nH]c3cc(NC(=O)[C@H](N)C4CCCCC4)cc4c3c2C=NNC4=O)cn1"
Outgoing: High

Incoming: Category of "Cc1ccc(C(=O)Nc2ccc(Nc3ccnc4cc(-c5nccs5)ccc34)cc2O)cc1.Cl" , please.
Outgoing: High

---

Listing of entries alongside the reported %Inh.
# Tested on: EPHA3
# SETUP_CONDITIONS: concentration: 1 μM, replicates: in singlicate; n = 1
Give just the numeric value; % need not be written.

Consider the reported %Inh for these compounds:
> print(dat)
                                   compound  result.type  reported.value
1  FC(F)(F)c1ccc(/C=C/c2cncnc2Nc2ccc3[nH]c(Cc4ccccc4)nc3c2)cc1         %Inh               0
2  COc1cc(Nc2nccc(-c3c(-c4cccc(NC(=O)c5c(F)cccc5F)c4)nn4ncccc34)n2)cc(OC)c1OC         %Inh              42
3  COc1ccc(-c2coc3ccc(-c4nnc(SCc5ccc(OC)c(C(F)(F)F)c5)o4)cc23)cc1         %Inh               0
4  Nc1ncc(-c2cccnc2)c2scc(-c3ccc4c(c3)CCN4C(=O)Cc3ccccc3)c12         %Inh               0
5  O=C(Nc1cccc(-c2nn3ccccc3c2-c2ccnc(Nc3cccc(F)c3)n2)c1)c1c(F)ccc(F)c1Cl         %Inh               0

Incoming: Value lookup for %Inh; key = "Cc1ccc(S(=O)(=O)Nc2ccc(Nc3nccc(Nc4cccc5[nH]ncc45)n3)cc2)cc1"
Outgoing: 0

Incoming: What does the record list as %Inh for "O=C(Nc1cccc(-c2nn3ccccc3c2-c2ccnc(Nc3cccc(C(F)(F)F)c3)n2)c1)c1c(F)cccc1F" ?
Outgoing: 0

Incoming: Suppose we examine the compound "Cc1occc1-c1ncc(OC[C@@H](N)Cc2c[nH]c3ccccc23)cc1-c1ccc2[nH]nc(C)c2c1.O=C(O)C(F)(F)F" ; what %Inh value has been reported?
Outgoing: 29

Incoming: Would you mind telling me what %Inh value was observed for "Nc1ncc(-c2ccc3nccc(-c4ccncc4)c3c2)cc1S(=O)(=O)N1CCOCC1" ?
Outgoing: 0
